tested on: YANK2; construct: gene STK32B; settings: concentration: 1 μM, replicates: in singlicate; n = 1;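 further: KINOMEscan kinase panel screen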

| compound | targetSystem | %Inh [%] |
| --- | --- | --- |
| CCCCc1nn2ncccc2c1-c1ccnc(Nc2ccc(N3CCN(C)CC3)cc2)n1 | YANK2 | 74 |
| O=C(Nc1cccc(Oc2ccc3nc(NC(=O)C4CC4)cn3n2)c1)c1ccccc1C(F)(F)F | YANK2 | 0 |
| Cl.Cl.NCC(NCc1ccc(-c2ccnc3[nH]ccc23)s1)c1ccccc1 (stereo not drawn) | YANK2 | 0 |
| CCn1c(-c2nonc2N)nc2c(C#CC(C)(C)O)nc(OC[C@H](N)c3ccccc3)cc21 | YANK2 | 0 |
| COc1cc(Nc2nccc(N3CCC(NC(=O)Nc4cccc(C(C)=O)c4)C3)n2)cc(OC)c1OC (stereo not drawn) | YANK2 | 0 |
| O=C(Nc1n[nH]c2cc(-c3ccoc3)ccc12)C1CC1 | YANK2 | 0 |
| Cc1ccc(S(=O)(=O)Nc2ccc(Nc3nccc(Nc4cccc5[nH]ncc45)n3)cc2)cc1 | YANK2 | 0 |
| COc1cc(Nc2nccc(-c3c(-c4cccc(NC(=O)c5c(F)cccc5F)c4)nn4ccccc34)n2)cc(OC)c1OC | YANK2 | 0 |
| Nc1ncnc2c1nc(-c1ccccc1)n2-c1ccccc1 | YANK2 | 21 |
| Nc1ncc(-c2cccnc2)c2scc(-c3ccc4c(c3)CCN4C(=O)Cc3ccccc3)c12 | YANK2 | 10 |
| COc1cccc(C(=O)Nc2cccc(Oc3ccc4nc(NC(=O)C5CC5)cn4n3)c2)c1 | YANK2 | 0 |
| Cl.Cl.NCC(C(=O)Nc1cc(Br)c(-c2ccnc3[nH]ccc23)s1)c1ccccc1 (stereo not drawn) | YANK2 | 0 |
| Clc1ccc(-c2nn3ncccc3c2-c2ccnc(Nc3ccc4c(c3)OCCO4)n2)cc1 | YANK2 | 21 |
| Cl.c1ccc(-c2ccc3c(Nc4ccc5[nH]ncc5c4)ccnc3c2)nc1 | YANK2 | 1 |
| O=C(Nc1cccc(-c2nn3ccccc3c2-c2ccnc(Nc3cccc(F)c3)n2)c1)c1c(F)ccc(F)c1Cl | YANK2 | 75 |
| Cl.NC(=O)c1cccc(Nc2nccc(Nc3ccc(Oc4c(Cl)cccc4Cl)c(Cl)c3)n2)c1 | YANK2 | 0 |
| NCCCC(NC(=O)c1cc(Br)c(-c2ccnc3[nH]ccc23)s1)c1ccccc1.O=C(O)C(F)(F)F.O=C(O)C(F)(F)F (stereo not drawn) | YANK2 | 0 |
| c1ccc(Oc2ccc(Nc3ccnc4cc(-c5ccc(CNCCN6CCOCC6)o5)ccc34)cc2)nc1 | YANK2 | 0 |
